Listing of recorded EC50 by entry.
Biological target: T1, cynomolgus OX40L expressed on CHO cells (cynomolgus monkey, UniProt P23510 1-183 (human entry))
T1 construct: also called cynoOX40L; CHO-cynoOX40L
T1 chain: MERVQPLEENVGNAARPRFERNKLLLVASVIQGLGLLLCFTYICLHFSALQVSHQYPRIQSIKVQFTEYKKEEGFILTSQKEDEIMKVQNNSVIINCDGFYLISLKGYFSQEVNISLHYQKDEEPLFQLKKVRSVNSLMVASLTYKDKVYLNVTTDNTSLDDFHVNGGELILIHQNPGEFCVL
Assay: FACS binding to CHO cells, anti-c-myc detection
reported-property: EC50

1. OX40L01E07 (VHH, monovalent Nanobody from E. coli; not shown: C-terminal c-myc and His6 tag) VHH: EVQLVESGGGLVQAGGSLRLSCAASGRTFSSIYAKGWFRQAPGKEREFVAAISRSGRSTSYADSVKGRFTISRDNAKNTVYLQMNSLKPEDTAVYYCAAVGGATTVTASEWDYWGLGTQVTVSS : 4.9 nM
2. OX40L01B11 (VHH, monovalent Nanobody from E. coli; not shown: C-terminal c-myc and His6 tag) VHH: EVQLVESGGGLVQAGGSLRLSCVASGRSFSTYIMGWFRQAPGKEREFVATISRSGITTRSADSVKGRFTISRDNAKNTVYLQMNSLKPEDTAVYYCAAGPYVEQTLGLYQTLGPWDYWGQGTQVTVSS : 3.39 nM
